- Experimental system: Alpha-protein kinase 1 (Homo sapiens)
- Sequence (Q96QP1 whole entry): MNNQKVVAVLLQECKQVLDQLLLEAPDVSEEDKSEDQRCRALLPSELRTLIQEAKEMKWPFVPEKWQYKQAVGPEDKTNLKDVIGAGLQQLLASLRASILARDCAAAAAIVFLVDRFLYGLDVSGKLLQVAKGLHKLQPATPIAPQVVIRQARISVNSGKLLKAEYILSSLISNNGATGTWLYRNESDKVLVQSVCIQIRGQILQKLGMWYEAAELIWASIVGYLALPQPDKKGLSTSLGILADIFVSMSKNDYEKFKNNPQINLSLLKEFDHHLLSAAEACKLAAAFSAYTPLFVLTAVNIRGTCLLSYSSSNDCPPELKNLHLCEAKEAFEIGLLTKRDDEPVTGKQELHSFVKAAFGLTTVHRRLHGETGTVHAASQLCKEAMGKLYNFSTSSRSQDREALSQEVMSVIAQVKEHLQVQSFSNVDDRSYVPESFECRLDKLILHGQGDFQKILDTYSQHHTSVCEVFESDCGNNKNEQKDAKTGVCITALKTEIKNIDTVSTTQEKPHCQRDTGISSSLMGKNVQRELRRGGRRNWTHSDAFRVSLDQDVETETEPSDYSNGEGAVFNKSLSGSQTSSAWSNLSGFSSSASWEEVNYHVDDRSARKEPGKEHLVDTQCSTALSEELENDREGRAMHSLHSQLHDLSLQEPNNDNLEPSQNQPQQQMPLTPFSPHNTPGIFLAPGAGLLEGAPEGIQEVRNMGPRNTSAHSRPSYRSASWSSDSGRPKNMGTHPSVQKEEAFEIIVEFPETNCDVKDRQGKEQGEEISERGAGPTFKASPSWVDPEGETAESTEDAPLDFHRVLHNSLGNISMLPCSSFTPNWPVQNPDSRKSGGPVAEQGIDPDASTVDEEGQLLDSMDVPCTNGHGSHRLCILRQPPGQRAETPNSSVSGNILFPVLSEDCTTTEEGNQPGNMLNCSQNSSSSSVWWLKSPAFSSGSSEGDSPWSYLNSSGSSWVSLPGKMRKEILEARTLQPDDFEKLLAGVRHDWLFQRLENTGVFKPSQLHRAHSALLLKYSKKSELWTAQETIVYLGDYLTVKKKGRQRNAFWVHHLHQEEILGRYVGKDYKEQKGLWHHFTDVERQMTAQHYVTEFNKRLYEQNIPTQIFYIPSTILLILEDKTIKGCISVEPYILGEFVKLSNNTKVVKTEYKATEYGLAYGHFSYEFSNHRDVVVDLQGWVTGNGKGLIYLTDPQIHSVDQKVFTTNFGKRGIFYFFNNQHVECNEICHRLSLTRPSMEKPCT
API: label(entry) gives Y if the entry's IC50 is strictly smaller than 0.3 µM; on equality or larger values it gives N.

Consider the following illustrative entries.
Prompt: Consider the compound CC(C)(c1ccc(Br)cc1)c1csc(NC(=O)NCc2ccc(C3CCNCC3)c(F)c2)n1 . Is its IC50 strictly less than 0.3 µM?
Completion: Y

Prompt: And then CC(C)(c1ccc(Br)cc1)c1csc(NC(=O)NCc2ccc(N3CCNCC3)c(Br)c2)n1 , what is it?
Completion: Y

Prompt: And then C#CC(C)(c1ccc(Cl)cc1)c1csc(NC(=N)N)n1 (configuration not stated) , what is it?
Completion: N

Prompt: And then COc1ccc(C(C)(C)c2csc(NC(=O)c3ccc(N4CC5CC(C4)N5)cc3)n2)cc1 , what is it?
Completion: Y

Prompt: And then C#C[C@@](C)(c1ccc(Cl)cc1)c1nc(NC(=O)NCCO)sc1Cl , what is it?
Completion: N

New cases:
Prompt: Consider the compound C#C[C@](C)(c1ccc(Cl)cc1)c1nc(NC(=O)NCCO)sc1Cl . Is its IC50 strictly less than 0.3 µM?
Completion: N

Prompt: And then COc1ccc(C(C)(C)c2csc(NC(=O)NCc3cc(F)c(C4CCNCC4)c(F)c3)n2)cc1 , what is it?
Completion: Y
